Test: Average transmittance of composition
Assay type: physicochemical
Conditions: photosensitive composition, quartz cell, optical path length 1 cm
parameter: Average transmittance (700 nm to 400 nm) Solution (%)

{"molecule": "CCCCCCC1(CCCCCC)c2cc(C(=O)c3ccc([N+](=O)[O-])cc3)ccc2-c2ccc(C(CC(C)N(OC(C)=O)C(C)=O)=NOC(C)=O)cc21 (racemic)", "numericValue": 77.8}
{"molecule": "CCCC1(CCC)c2cc(C(CCCCl)=NOC(C)=O)ccc2-c2ccc([N+](=O)[O-])cc21", "numericValue": 79.9}
{"molecule": "CCCC1(CCC)c2cc(C(CCCSc3ccc(Cl)cc3)=NOC(C)=O)ccc2-c2ccc([N+](=O)[O-])cc21", "numericValue": 65.1}
{"molecule": "CCCC1(CCC)c2cc(C(=O)c3ccc([N+](=O)[O-])cc3)ccc2-c2ccc(C(C)=NOC(C)=O)cc21", "numericValue": 86.0}
{"molecule": "CCCC1(CCC)c2cc(C(C)=NOC(C)=O)ccc2-c2ccc([N+](=O)[O-])cc21", "numericValue": 88.9}
{"molecule": "CCCC1(CCC)c2cc(C(=O)/C(C)=N/OC(C)=O)ccc2-c2ccc(C(=O)c3ccc([N+](=O)[O-])cc3)cc21", "numericValue": 70.9}

###

Experiment: Evaluation 3: 20-μm pattern line width of black photosensitive composition
Details: black composition (carbon black, cardo resin), initiator 0.4 mmol; 20 mJ/cm^2
parameter: 20-μm pattern line width
Note: the reply should be a number with no unit written.

{"molecule": "CCCCCCC1(CCCCCC)c2cc(C(=O)c3ccc(F)cc3)ccc2-c2ccc(/C(CC(C)N(OC(C)=O)C(C)=O)=N\\OC(C)=O)cc21 (stereo not shown)", "parameter": "20-μm pattern line width", "numericValue": 20.5}
{"molecule": "CCCC1(CCC)c2cc(C(C)=NOC(C)=O)ccc2-c2ccc([N+](=O)[O-])cc21", "parameter": "20-μm pattern line width", "numericValue": 20.6}
{"molecule": "CCCC1(CCC)c2cc(C(CCCCl)=NOC(C)=O)ccc2-c2ccc([N+](=O)[O-])cc21", "parameter": "20-μm pattern line width", "numericValue": 20.5}
{"molecule": "CCCC1(CCC)c2cc(C(=NOC(C)=O)c3ccccc3)ccc2-c2ccc([N+](=O)[O-])cc21", "parameter": "20-μm pattern line width", "numericValue": 20.4}
{"molecule": "CCCCCCC1(CCCCCC)c2cc(C(=O)c3ccccc3C)ccc2-c2ccc(C(C)=NOC(C)=O)cc21", "parameter": "20-μm pattern line width", "numericValue": 20.2}
{"molecule": "CCCC1(CCC)c2cc(C(CCCSc3ccc(Cl)cc3)=NOC(C)=O)ccc2-c2ccc([N+](=O)[O-])cc21", "parameter": "20-μm pattern line width", "numericValue": 20.6}

Okay, now this molecule:
Recorded 20-μm pattern line width of "CCCCCCC1(CCCCCC)c2cc(C(=NOC(C)=O)c3ccccc3C)ccc2-c2ccc([N+](=O)[O-])cc21" , please.
20.9

###

Experiment: Absorption coefficient (absorbance of 0.001% solution in tetrahydrofuran)
Type: physicochemical
Conditions: 0.001% (wt/vol) solution in tetrahydrofuran
Experimental: A 0.001% (wt/vol) solution of each of the compounds 1, 2, 4, 6, 8, 9, 11, 12, 13, 15, 16, D-1, D-3, D-4, D-7, D-8, D-9, D-12, D-14, D-15, D-20, C-1, and C-2 in tetrahydrofuran was prepared, and its absorbance was measured with a spectrophotometer (manufactured by Hitachi High-Technologies Corporation, trade name: “U-3900H”). An absorption maximum wavelength (Amax) at a wavelength of from 280 nm to 400 nm was read from an absorption spectrum obtained with the spectrophotometer.
parameter: Absorption coefficient at 365 nm (mL/mg/cm)

{"compound": "CCCC1(CCC)c2cc(C(C)=NOC(C)=O)ccc2-c2ccc([N+](=O)[O-])cc21", "numericValue": 46.3}
{"compound": "CC(=O)ON=C(C)c1ccc2c(c1)Cc1ccccc1-2", "numericValue": 0.1}
{"compound": "CCCC1(CCC)c2cc(C(=O)c3ccc([N+](=O)[O-])cc3)ccc2-c2ccc(C(=NOC(C)=O)C(C)C)cc21 (mixture of isomers)", "numericValue": 10.9}
{"compound": "CCCC1(CCC)c2cc(C(=O)c3ccccc3C)ccc2-c2ccc(/C(C)=N/OC(C)=O)cc21", "numericValue": 2.2}
{"compound": "CCCC1(CCC)c2cc(C(=O)C(CCSc3ccc(Cl)cc3)=NOC(C)=O)ccc2-c2ccc([N+](=O)[O-])cc21", "numericValue": 36.7}

1 = CCCC1(CCC)c2ccccc2-c2ccc(/C(C)=N/OC(C)=O)cc21
2 = CCCC1(CCC)c2cc(C(CCCSc3ccc(Cl)cc3)=NOC(C)=O)ccc2-c2ccc([N+](=O)[O-])cc21
Which record shows the lower Absorption coefficient at 365 nm: the first, 1 , or the second, 2 ? Indicate which entry you chose by stating its label.
1
(1: 0.0 mL/mg/cm, 2: 36.3 mL/mg/cm)
